I'd be grateful if you could share measured polymerase ribozyme fitness (log ratio) for these entries.
B1: TPR t1 (parent)
chain: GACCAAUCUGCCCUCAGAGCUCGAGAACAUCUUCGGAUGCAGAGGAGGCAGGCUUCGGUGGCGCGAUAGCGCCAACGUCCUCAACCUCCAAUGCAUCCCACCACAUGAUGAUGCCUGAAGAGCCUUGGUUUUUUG

variants of: B1; experiment: polymerase ribozyme fitness, log enrichment relative to wild type (log ratio); higher = more active; in vitro selection for triplet polymerase activity
Numbers only.

Some solved entries appear below for comparison.
mutation.annotation: A26U U81C
polymerase ribozyme fitness (log ratio): -3.05
//
mutation.annotation: U30C U78A U106C A121U
polymerase ribozyme fitness (log ratio): -2.15
//
mutation.annotation: C72A C86U A108U
polymerase ribozyme fitness (log ratio): -5.12
//
mutation.annotation: C13A G19C G69U G110U U112C
polymerase ribozyme fitness (log ratio): -5.05
//
mutation.annotation: G39U G52A U55C C56A C80U
polymerase ribozyme fitness (log ratio): -1.08

Dear reader, for each entry below, please note its polymerase ribozyme fitness (log ratio).
1. U7A U33A A100G G120C G135A
2. G47U G51A A121G G128U
3. C4U G10U G51U C79G
4. U7G A18U C101U
5. C56G C64G

Found:
1: -3.75; 2: -3.97; 3: -3.58; 4: -1.59; 5: -7.2

Data credit: the RNAGym collection of RNA variant scans (doi:10.1073/pnas.2313332121)
